meta.source: PubChem BioAssay AID493048

- Study target: GTP-binding nuclear protein Ran (Homo sapiens) + Importin subunit beta-1 (Homo sapiens) (UniProt P62826+Q14974)
- Assay: inhibitors of Ran–importin-beta complex, dose response, biochemical, plate reader, dry powder (AID 493048)
- Conditions used: biochemical RanGTP-importin-beta complex, at 100 µM (top of the series)
The source made the active and inactive calls. How the calls were made is not given here.
Observable: activity change, negative = inhibition

[[record]]
molecule = "CC(Nc1nc(N2CCCC2)nc2ccccc12)c1ccccc1 (stereo not drawn)"
result = "inactive"

[[record]]
molecule = "c1ccc2c(N3CCCC3)nc(N3CCCC3)nc2c1"
result = "inactive"

[[record]]
molecule = "CC1(C)CC(=O)c2c(C(F)(F)F)nn(-c3ccc(C(N)=O)c(OC4CCC(N)CC4)c3)c2C1 (stereo not drawn)"
result = "inactive"


----------
- Study target: GTP-binding nuclear protein Ran (Homo sapiens) + Importin subunit beta-1 (Homo sapiens) (UniProt P62826+Q14974)
- Assay: inhibitors of Ran–importin-beta complex, dose response, biochemical, plate reader, dry powder (AID 493048)
- Conditions used: biochemical RanGTP-importin-beta complex
Observable: AC50

[[record]]
molecule = "C=CCn1c(N)c(C(=O)OCCC)c2nc3ccccc3nc21"
observable = "AC50"
result = "36.4 µM"

[[record]]
molecule = "CC(C)SCC(=O)Nc1ncc2c(n1)-c1ccccc1CC2"
observable = "AC50"
result = "37.3 µM"

[[record]]
molecule = "CC1=C(C(=O)OCC2CCCO2)C(c2ccccc2OC(C)C)C2C(=O)CC(c3ccco3)CC2=N1 (stereo not drawn)"
observable = "AC50"
result = "10.3 µM"

[[record]]
molecule = "O=C(O)Cn1cc(/C=C2\\SC(=O)N(CC(=O)N3CCCCCC3)C2=O)c2ccccc21"
observable = "AC50"
result = "90.9 µM"

[[record]]
molecule = "COc1ccc(-c2cc(C(F)(F)F)n3nc(N)nc3n2)cc1"
observable = "AC50"
result = "61.5 µM"

[[record]]
molecule = "COc1ccc(CCNC(=O)c2cc3c(=O)n4cccc(C)c4nc3n(CCCN3CCOCC3)c2=N)cc1"
observable = "AC50"
result = "9.68 µM"

[[record]]
molecule = "COc1cc(OC)cc(C(=O)NCCNc2nc3cc(C)cc(C)c3cc2C#N)c1"
observable = "AC50"
result = "12.9 µM"

[[record]]
molecule = "Cc1cccc(-n2c(C)cc(/C=C3/C(=N)N4N=C(CC(C)C)SC4=NC3=O)c2C)c1"
observable = "AC50"
result = "28.2 µM"

